src = patent US20170143843A1

system: T1, human factor D (human, UniProt P00746 26-253)
T1 construct: also called fD
T1 sequence (P00746 26-253 limits assumed): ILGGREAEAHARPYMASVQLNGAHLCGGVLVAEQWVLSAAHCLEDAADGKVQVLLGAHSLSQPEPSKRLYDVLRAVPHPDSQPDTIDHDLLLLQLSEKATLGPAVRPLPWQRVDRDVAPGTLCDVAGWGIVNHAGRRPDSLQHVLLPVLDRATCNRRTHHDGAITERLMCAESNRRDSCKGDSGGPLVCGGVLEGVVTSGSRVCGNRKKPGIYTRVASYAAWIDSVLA
assay_explanation: SPR Biacore T200, Fab captured by anti-huFab, human fD injected, 25 C
endpoint_label: Kd (nM)
Numeric answer only, unit nM assumed.

| binder | Kd / nM |
| --- | --- |
| AFD.v8 (SIESD; VL-D28S:D30E:D31S VH-D62E) (Fab, V domains shown, Fab; also called SIESD (AFD.v8)) VH: EVQLVQSGPELKKPGASVKVSCKASGYTFTNYGMNWVRQAPGQGLEWMGWINTYTGETTYAEDFKGRFVFSLDTSVSTAYLQISSLKAEDTAVYYCEREGGVNNWGQGTLVTVSS VL: DIQVTQSPSSLSASVGDRVTITCITSTSIESDMNWYQQKPGKVPKLLISGGNTLRPGVPSRFSGSGSGTDFTLTISSLQPEDVATYYCLQSDSLPYTFGQGTKVEIKR | 0.0167 |

Now consider the entry below.
Prompt: Given the entry AFD.v5 (VL-D28S:D31S:D32S) (Fab, V domains shown, Fab variant of aFD.WT) VH: EVQLVQSGPELKKPGASVKVSCKASGYTFTNYGMNWVRQAPGQGLEWMGWINTYTGETTYADDFKGRFVFSLDTSVSTAYLQISSLKAEDTAVYYCEREGGVNNWGQGTLVTVSS VL: DIQVTQSPSSLSASVGDRVTITCITSTSIDSSMNWYQQKPGKVPKLLISGGNTLRPGVPSRFSGSGSGTDFTLTISSLQPEDVATYYCLQSDSLPYTFGQGTKVEIKR , report its measured Kd.
Response: 0.28
